# TARGET: Protein farnesyl/geranylgeranyl transferase (Homo sapiens) (UniProt P49354+P49356+P53609)
# PROTOCOL NOTES: Relative IC50 for farnesyl and geranylgeranyl transferase
# Type: protein-complex assay
METRIC NAME: Ratio

[[record]]
smi = "CC/C(=C\\COP(=O)(O)OP(=O)(O)O)CC/C=C(\\C)CCC=C(C)C"
target = "Protein farnesyl/geranylgeranyl transferase (Homo sapiens) (UniProt P49354+P49356+P53609)"
comparison_operator = ">"
experimental_value = 460

[[record]]
smi = "C=CC/C(=C\\COP(=O)(O)OP(=O)(O)O)CC/C=C(\\C)CC/C=C(\\C)CCC=C(C)C"
target = "Protein farnesyl/geranylgeranyl transferase (Homo sapiens) (UniProt P49354+P49356+P53609)"
comparison_operator = "="
experimental_value = 7.5

[[record]]
smi = "CC(C)=CCC/C(C)=C/CC/C(=C/COP(=O)(O)OP(=O)(O)O)c1ccccc1"
target = "Protein farnesyl/geranylgeranyl transferase (Homo sapiens) (UniProt P49354+P49356+P53609)"
comparison_operator = ">"
experimental_value = 340

[[record]]
smi = "CC(C)=CCC/C(C)=C/CC/C(=C/COP(=O)(O)OP(=O)(O)O)C(C)(C)C"
target = "Protein farnesyl/geranylgeranyl transferase (Homo sapiens) (UniProt P49354+P49356+P53609)"
comparison_operator = "="
experimental_value = 1600

[[record]]
smi = "C=C/C(=C\\COP(=O)(O)OP(=O)(O)O)CC/C=C(\\C)CC/C=C(\\C)CCC=C(C)C"
target = "Protein farnesyl/geranylgeranyl transferase (Homo sapiens) (UniProt P49354+P49356+P53609)"
comparison_operator = "="
experimental_value = 4.3

[[record]]
smi = "C=CC/C(=C\\COP(=O)(O)OP(=O)(O)O)CC/C=C(\\C)CCC=C(C)C"
target = "Protein farnesyl/geranylgeranyl transferase (Homo sapiens) (UniProt P49354+P49356+P53609)"
comparison_operator = ">"
experimental_value = 530

[[record]]
smi = "C=C/C(=C\\COP(=O)(O)OP(=O)(O)O)CC/C=C(\\C)CCC=C(C)C"
target = "Protein farnesyl/geranylgeranyl transferase (Homo sapiens) (UniProt P49354+P49356+P53609)"
comparison_operator = "="
experimental_value = 600


###

# System: NIH3T3
# PROTOCOL NOTES: Inhibition of anchorage independent growth of H-Ras(61L)-transformed NIH3T3 fibroblasts in soft agar
# Type: functional, cell-based
# ASSAY CONDITIONS: Mus musculus
pIC50: −log10 of the molar value.
Here, each record is paired with measured pIC50 data.
METRIC NAME: pIC50

[[record]]
smi = "C=C/C(=C\\CO)CC/C=C(\\C)CCC=C(C)C"
comparison_operator = "="
experimental_value = 4.96

[[record]]
smi = "C=CC/C(=C\\CO)CC/C=C(\\C)CCC=C(C)C"
comparison_operator = "="
experimental_value = 4.99

[[record]]
smi = "C=CC/C(=C\\CO)CC/C=C(\\C)CC/C=C(\\C)CCC=C(C)C"
comparison_operator = "<"
experimental_value = 4.60

[[record]]
smi = "C=C/C(=C\\CO)CC/C=C(\\C)CC/C=C(\\C)CCC=C(C)C"
comparison_operator = "="
experimental_value = 4.74

[[record]]
smi = "CC/C(=C\\CO)CC/C=C(\\C)CCC=C(C)C"
comparison_operator = "<"
experimental_value = 4.60

[[record]]
smi = "CC(C)=CCC/C(C)=C/CC/C(=C/CO)c1ccccc1"
comparison_operator = "<"
experimental_value = 4.60


###

Here, each record is paired with measured pIC50 data.
# System: NIH3T3
# PROTOCOL NOTES: Inhibition of anchorage independent growth of H-Ras(61L)CVLL-transformed NIH3T3 fibroblasts in soft agar
# Assay type: functional, cell-based
# ASSAY CONDITIONS: Mus musculus
pIC50: −log10 of the molar value.
METRIC NAME: pIC50

[[record]]
smi = "C=C/C(=C\\CO)CC/C=C(\\C)CC/C=C(\\C)CCC=C(C)C"
metric_name = "pIC50"
comparison_operator = "="
experimental_value = 4.86

[[record]]
smi = "C=CC/C(=C\\CO)CC/C=C(\\C)CCC=C(C)C"
metric_name = "pIC50"
comparison_operator = "<"
experimental_value = 4.60

[[record]]
smi = "C=C/C(=C\\CO)CC/C=C(\\C)CCC=C(C)C"
metric_name = "pIC50"
comparison_operator = "="
experimental_value = 4.85

[[record]]
smi = "CC/C(=C\\CO)CC/C=C(\\C)CCC=C(C)C"
metric_name = "pIC50"
comparison_operator = "<"
experimental_value = 4.60

[[record]]
smi = "C=CC/C(=C\\CO)CC/C=C(\\C)CC/C=C(\\C)CCC=C(C)C"
metric_name = "pIC50"
comparison_operator = "="
experimental_value = 5.34

[[record]]
smi = "CC(C)=CCC/C(C)=C/CC/C(=C/CO)c1ccccc1"
metric_name = "pIC50"
comparison_operator = "<"
experimental_value = 4.60


###

# TARGET: Protein farnesyltransferase (Homo sapiens, UniProt P49354+P49356)
# PROTOCOL NOTES: Inhibition of recombinant farnesyltransferase (mFTase) in scintillation proximity assay
# strict inequality: IC50 < 0.2 µM yields true, everything else yields false

[[record]]
smi = "C=CC/C(=C\\COP(=O)(O)OP(=O)(O)O)CC/C=C(\\C)CC/C=C(\\C)CCC=C(C)C"
classification = "false"

[[record]]
smi = "C=C/C(=C\\COP(=O)(O)OP(=O)(O)O)CC/C=C(\\C)CC/C=C(\\C)CCC=C(C)C"
classification = "false"

[[record]]
smi = "CC(C)=CCC/C(C)=C/CC/C(=C/COP(=O)(O)OP(=O)(O)O)c1ccccc1"
classification = "false"

[[record]]
smi = "C=C/C(=C\\COP(=O)(O)OP(=O)(O)O)CC/C=C(\\C)CCC=C(C)C"
classification = "true"

[[record]]
smi = "CC(C)=CCC/C(C)=C/CC/C(=C/COP(=O)(O)OP(=O)(O)O)C(C)(C)C"
classification = "true"

[[record]]
smi = "C=CC/C(=C\\COP(=O)(O)OP(=O)(O)O)CC/C=C(\\C)CCC=C(C)C"
classification = "true"

[[record]]
smi = "CC/C(=C\\COP(=O)(O)OP(=O)(O)O)CC/C=C(\\C)CCC=C(C)C"
classification = "false"


###

Here, each record is paired with measured pIC50 data.
# TARGET: Geranylgeranyl transferase type I (Homo sapiens, UniProt P49354+P53609)
# PROTOCOL NOTES: Inhibition of recombinant Geranylgeranyl transferase type I in scintillation proximity assay
# Format: protein-complex assay
pIC50: −log10 of the molar value.
METRIC NAME: pIC50

[[record]]
smi = "C=C/C(=C\\COP(=O)(O)OP(=O)(O)O)CC/C=C(\\C)CCC=C(C)C"
comparison_operator = "="
experimental_value = 4.00

[[record]]
smi = "CC/C(=C\\COP(=O)(O)OP(=O)(O)O)CC/C=C(\\C)CCC=C(C)C"
comparison_operator = "<"
experimental_value = 4.00

[[record]]
smi = "CC(C)=CCC/C(C)=C/CC/C(=C/COP(=O)(O)OP(=O)(O)O)C(C)(C)C"
comparison_operator = "="
experimental_value = 4.30

[[record]]
smi = "C=C/C(=C\\COP(=O)(O)OP(=O)(O)O)CC/C=C(\\C)CC/C=C(\\C)CCC=C(C)C"
comparison_operator = "="
experimental_value = 5.52

[[record]]
smi = "C=CC/C(=C\\COP(=O)(O)OP(=O)(O)O)CC/C=C(\\C)CCC=C(C)C"
comparison_operator = "<"
experimental_value = 4.00

[[record]]
smi = "CC(C)=CCC/C(C)=C/CC/C(=C/COP(=O)(O)OP(=O)(O)O)c1ccccc1"
comparison_operator = "<"
experimental_value = 4.00

